- System: AncSZ
- MEASUREMENT DESCRIPTION: phosphorylation enrichment, bacterial display (enrichment ratio); higher = better substrate or ligand; peptides without Tyr show the background
Where phosphorylation enrichment equals or exceeds 0.9, the correct label is Y; where it does not, the label is N.

Here are 5 sequences together with their reported answers.
[
  {
    "SEQUENCE STRING": "DFAIVYGTIIL [GPR179_Y460_G455D]",
    "LABEL CLASS": "Y"
  },
  {
    "SEQUENCE STRING": "YRDALYKFMVD [PHEX_Y250]",
    "LABEL CLASS": "Y"
  },
  {
    "SEQUENCE STRING": "GKSHIYFWTLE [EML2_Y230]",
    "LABEL CLASS": "Y"
  },
  {
    "SEQUENCE STRING": "ALKWGYTVKGI [OAT_Y158_R154L]",
    "LABEL CLASS": "Y"
  },
  {
    "SEQUENCE STRING": "FPRAWYRRSIA [KIAA1109_Y4272]",
    "LABEL CLASS": "N"
  }
]

Enquiry: Answer whether phosphorylation enrichment of RPQDGYRIVQH [PTPRT_Y1329] is greater than or equal to 0.9.
Return: N

Enquiry: Answer whether phosphorylation enrichment of FSKDIYKRVTG [PANK2_Y405_N404I_YF] is greater than or equal to 0.9.
Return: N

----------
phosphorylation enrichment for assorted sequences
- TARGET ENTITY: FGFR1 (UniProt P11362)
- Sequence (P11362 whole entry, looked up): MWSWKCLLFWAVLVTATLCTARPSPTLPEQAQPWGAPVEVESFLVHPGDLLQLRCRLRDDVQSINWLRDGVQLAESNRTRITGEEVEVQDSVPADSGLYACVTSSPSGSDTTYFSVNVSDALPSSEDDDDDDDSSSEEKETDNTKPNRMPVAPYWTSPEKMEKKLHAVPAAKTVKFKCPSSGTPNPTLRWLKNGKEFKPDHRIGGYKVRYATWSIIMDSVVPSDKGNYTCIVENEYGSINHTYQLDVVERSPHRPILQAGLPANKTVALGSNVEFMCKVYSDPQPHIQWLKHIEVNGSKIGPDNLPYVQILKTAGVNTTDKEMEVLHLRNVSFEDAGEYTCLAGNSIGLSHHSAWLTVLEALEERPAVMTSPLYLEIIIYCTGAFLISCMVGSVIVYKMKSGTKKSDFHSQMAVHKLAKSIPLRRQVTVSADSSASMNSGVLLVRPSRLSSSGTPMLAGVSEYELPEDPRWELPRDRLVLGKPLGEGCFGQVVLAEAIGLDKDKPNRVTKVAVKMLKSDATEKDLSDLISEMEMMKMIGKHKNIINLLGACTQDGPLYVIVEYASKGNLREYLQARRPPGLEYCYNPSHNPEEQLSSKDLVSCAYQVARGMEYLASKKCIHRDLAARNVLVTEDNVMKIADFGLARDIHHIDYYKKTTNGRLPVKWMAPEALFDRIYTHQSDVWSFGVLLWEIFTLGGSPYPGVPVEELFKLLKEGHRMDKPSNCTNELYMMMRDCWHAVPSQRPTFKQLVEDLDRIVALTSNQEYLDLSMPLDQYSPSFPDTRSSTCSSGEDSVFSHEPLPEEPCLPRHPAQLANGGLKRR
- MEASUREMENT DESCRIPTION: phosphorylation enrichment, bacterial display (enrichment ratio); higher = better substrate or ligand; peptides without Tyr show the background
Answer as a number with no unit attached.

[
  {
    "SEQUENCE STRING": "MSRFIYSTDFF [NTRK1_Y676_D674Y_YF]",
    "phosphorylation enrichment": 1.47
  },
  {
    "SEQUENCE STRING": "AESPEHVHMFT [FAM111A_Y511_Y511H_YF]",
    "phosphorylation enrichment": 0.433
  },
  {
    "SEQUENCE STRING": "DNQFAYLKAII [HNF4A_Y288_E285Q_YF]",
    "phosphorylation enrichment": 0.473
  },
  {
    "SEQUENCE STRING": "AEYGLYGAMVW [VSX2_Y222_R227W]",
    "phosphorylation enrichment": 0.521
  },
  {
    "SEQUENCE STRING": "LNERHYGGLTD [PGAM2_Y92_G97D]",
    "phosphorylation enrichment": 0.977
  },
  {
    "SEQUENCE STRING": "VLDCHYPEDEV [C1QBP_Y188]",
    "phosphorylation enrichment": 0.596
  }
]

Would you kindly look at the next entry?
Enquiry: Entry QLQQAYQEAFE [YWHAZ_Y149_S145L] needs its phosphorylation enrichment filled in; supply it.
Return: 1.76

----------
phosphorylation enrichment for assorted sequences
- Tested on: c-Abl (mouse)
- MEASUREMENT DESCRIPTION: phosphorylation enrichment, bacterial display (enrichment ratio); higher = better substrate or ligand; peptides without Tyr show the background
Answer as a number with no unit attached.

Worked cases, phosphorylation enrichment given:
[
  {
    "SEQUENCE STRING": "HNQDGYSFLSR [LDLR_Y845_P848L_YF]",
    "ENDPOINT VALUE": 0.635
  },
  {
    "SEQUENCE STRING": "EEDPEYKKKFR [FAM161A_Y278]",
    "ENDPOINT VALUE": 0.647
  },
  {
    "SEQUENCE STRING": "RMLRKYQELMS [KRT74_Y425_E424K]",
    "ENDPOINT VALUE": 0.455
  },
  {
    "SEQUENCE STRING": "MLEVSYVDRNS [F10_Y384_P383S]",
    "ENDPOINT VALUE": 0.554
  },
  {
    "SEQUENCE STRING": "TTIVSYRASQP [MKI67_Y1737_K1734I]",
    "ENDPOINT VALUE": 0.654
  },
  {
    "SEQUENCE STRING": "GEPLSHTRFSL [TFRC_Y20_Y20H]",
    "ENDPOINT VALUE": 0.637
  }
]

Enquiry: Entry MGSFNYLGFAR [SPTLC2_Y178_YF] needs its phosphorylation enrichment filled in; supply it.
Return: 0.521

----------
phosphorylation enrichment for assorted sequences
- TARGET ENTITY: Jak2 (UniProt O60674)
- Sequence (O60674 whole entry, looked up): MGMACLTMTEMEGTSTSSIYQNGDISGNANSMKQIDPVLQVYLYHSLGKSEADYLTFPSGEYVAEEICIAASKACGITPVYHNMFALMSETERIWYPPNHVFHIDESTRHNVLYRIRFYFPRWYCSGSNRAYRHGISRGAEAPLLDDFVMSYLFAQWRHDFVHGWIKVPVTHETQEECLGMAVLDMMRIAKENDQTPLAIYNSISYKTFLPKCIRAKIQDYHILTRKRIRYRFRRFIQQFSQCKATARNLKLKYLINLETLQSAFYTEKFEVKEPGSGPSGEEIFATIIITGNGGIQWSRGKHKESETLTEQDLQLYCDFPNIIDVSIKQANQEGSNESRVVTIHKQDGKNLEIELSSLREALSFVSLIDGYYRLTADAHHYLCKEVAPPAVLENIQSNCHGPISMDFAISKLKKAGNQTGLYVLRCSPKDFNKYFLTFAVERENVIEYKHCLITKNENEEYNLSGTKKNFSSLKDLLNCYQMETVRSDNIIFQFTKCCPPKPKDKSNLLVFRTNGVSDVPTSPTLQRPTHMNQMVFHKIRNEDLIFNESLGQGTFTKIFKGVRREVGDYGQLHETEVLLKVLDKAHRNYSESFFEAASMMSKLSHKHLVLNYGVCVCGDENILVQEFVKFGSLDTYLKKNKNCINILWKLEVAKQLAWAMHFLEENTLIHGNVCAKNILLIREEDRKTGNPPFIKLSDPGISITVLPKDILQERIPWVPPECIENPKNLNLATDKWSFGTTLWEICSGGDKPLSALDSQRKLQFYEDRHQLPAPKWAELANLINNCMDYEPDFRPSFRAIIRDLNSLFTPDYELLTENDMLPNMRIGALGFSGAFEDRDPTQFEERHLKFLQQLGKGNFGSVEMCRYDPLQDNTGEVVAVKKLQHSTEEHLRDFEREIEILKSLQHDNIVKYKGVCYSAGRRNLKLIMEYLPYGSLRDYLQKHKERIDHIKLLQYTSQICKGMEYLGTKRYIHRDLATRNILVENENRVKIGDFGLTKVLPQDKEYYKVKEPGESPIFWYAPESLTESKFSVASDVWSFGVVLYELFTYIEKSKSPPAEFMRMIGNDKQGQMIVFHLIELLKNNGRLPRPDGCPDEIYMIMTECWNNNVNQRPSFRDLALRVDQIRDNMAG
- MEASUREMENT DESCRIPTION: phosphorylation enrichment, bacterial display (enrichment ratio); higher = better substrate or ligand; peptides without Tyr show the background

[
  {
    "SEQUENCE STRING": "FTYDPYSEEDP [IL2RB_Y387]",
    "TARGET ENTITY": "Jak2 (UniProt O60674)",
    "phosphorylation enrichment": 0.957
  },
  {
    "SEQUENCE STRING": "GEETDYTPVWC [UROD_Y30]",
    "TARGET ENTITY": "Jak2 (UniProt O60674)",
    "phosphorylation enrichment": 1.04
  },
  {
    "SEQUENCE STRING": "RDSQLYAVDYE [MRPS34_Y34]",
    "TARGET ENTITY": "Jak2 (UniProt O60674)",
    "phosphorylation enrichment": 2.07
  },
  {
    "SEQUENCE STRING": "RGFDTYFGYLL [ARSB_Y165]",
    "TARGET ENTITY": "Jak2 (UniProt O60674)",
    "phosphorylation enrichment": 5.83
  },
  {
    "SEQUENCE STRING": "MGSFNYLGFPR [SPTLC2_Y178_A182P_YF]",
    "TARGET ENTITY": "Jak2 (UniProt O60674)",
    "phosphorylation enrichment": 1.68
  }
]

Would you kindly look at the next entry?
Enquiry: Entry LSDGPYSNSFE [EPOR_Y485_P488S_YF] needs its phosphorylation enrichment filled in; supply it.
Return: 1.18

----------
- TARGET ENTITY: FGFR3 (UniProt P22607)
- Sequence (P22607 whole entry, looked up): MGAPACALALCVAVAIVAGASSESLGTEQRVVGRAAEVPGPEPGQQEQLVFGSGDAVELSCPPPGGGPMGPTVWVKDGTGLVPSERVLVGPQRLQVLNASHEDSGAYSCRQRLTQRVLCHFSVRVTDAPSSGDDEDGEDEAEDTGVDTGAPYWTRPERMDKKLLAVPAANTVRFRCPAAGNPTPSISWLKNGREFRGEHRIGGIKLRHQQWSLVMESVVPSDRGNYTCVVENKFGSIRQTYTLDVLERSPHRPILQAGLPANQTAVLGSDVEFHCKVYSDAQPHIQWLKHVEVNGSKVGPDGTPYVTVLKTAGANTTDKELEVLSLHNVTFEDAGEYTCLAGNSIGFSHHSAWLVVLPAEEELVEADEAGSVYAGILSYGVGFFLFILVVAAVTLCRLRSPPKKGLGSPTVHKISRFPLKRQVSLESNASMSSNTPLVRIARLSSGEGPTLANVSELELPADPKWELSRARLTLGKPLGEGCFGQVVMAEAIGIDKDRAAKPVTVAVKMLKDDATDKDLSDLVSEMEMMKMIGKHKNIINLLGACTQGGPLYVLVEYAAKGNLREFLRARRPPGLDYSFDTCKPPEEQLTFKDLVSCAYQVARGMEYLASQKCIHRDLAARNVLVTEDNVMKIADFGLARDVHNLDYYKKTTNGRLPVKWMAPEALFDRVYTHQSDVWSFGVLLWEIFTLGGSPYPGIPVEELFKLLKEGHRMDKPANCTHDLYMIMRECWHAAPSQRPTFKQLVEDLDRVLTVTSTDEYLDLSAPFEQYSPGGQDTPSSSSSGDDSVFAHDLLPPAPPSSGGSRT
- MEASUREMENT DESCRIPTION: phosphorylation enrichment, bacterial display (enrichment ratio); higher = better substrate or ligand; peptides without Tyr show the background
Where phosphorylation enrichment equals or exceeds 0.9, the correct label is 1; where it does not, the label is 0.

[
  {
    "SEQUENCE STRING": "YDEYRYRSVIK [CFTR_Y517]",
    "TARGET ENTITY": "FGFR3 (UniProt P22607)",
    "LABEL CLASS": 0
  }
]

From here, focus on the item given below.
Enquiry: Answer whether phosphorylation enrichment of QNTGNYYDLYG [PTPN11_Y62_D61N] is greater than or equal to 0.9.
Return: 1

----------
- Test system: c-Abl (mouse)
- MEASUREMENT DESCRIPTION: phosphorylation enrichment, bacterial display (enrichment ratio); higher = better substrate or ligand; peptides without Tyr show the background
READOUT NAME: phosphorylation enrichment
Answer as a number with no unit attached.

Worked cases, phosphorylation enrichment given:
[
  {
    "SEQUENCE STRING": "FADIAYNFRQG [PAH_Y166_H170Q_YF]",
    "phosphorylation enrichment": 0.665
  },
  {
    "SEQUENCE STRING": "LLARLYRGQAL [FGFR4_Y390_G388R]",
    "phosphorylation enrichment": 0.937
  },
  {
    "SEQUENCE STRING": "INPIIYAFVVE [CCR5_Y297_G301V]",
    "phosphorylation enrichment": 2.37
  },
  {
    "SEQUENCE STRING": "QKKEEYKMALY [F8_Y1990_R1985Q]",
    "phosphorylation enrichment": 0.902
  },
  {
    "SEQUENCE STRING": "CKSVHYDLVFL [COL22A1_Y37]",
    "phosphorylation enrichment": 0.93
  },
  {
    "SEQUENCE STRING": "ENPAKYDDIKK [GAPDH_Y255_K251N]",
    "phosphorylation enrichment": 0.579
  }
]

Would you kindly look at the next entry?
Enquiry: Entry RAIDMYLMGCF [GABRB2_Y308_K303R] needs its phosphorylation enrichment filled in; supply it.
Return: 1.58

----------
- TARGET ENTITY: c-Src SH2;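 also: peptide library displayed on the E. coli surface as eCPX fusions, selected cells deep-sequenced, score is each peptide's frequency after selection divided by its frequency in the input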
- MEASUREMENT DESCRIPTION: SH2 binding enrichment of the phosphorylated peptide, bacterial display (enrichment ratio); higher = better substrate or ligand; peptides without Tyr show the background
READOUT NAME: SH2 binding enrichment
Answer as a number with no unit attached.

Worked cases, SH2 binding enrichment given:
[
  {
    "SEQUENCE STRING": "RAILDYIASKY [GSTA3_Y74_N73D]",
    "SH2 binding enrichment": 0.746
  },
  {
    "SEQUENCE STRING": "QNTGNYYDLYG [PTPN11_Y62_D61N]",
    "SH2 binding enrichment": 3.3
  },
  {
    "SEQUENCE STRING": "GGPTFYIDTNA [ACTL6A_Y69_YF]",
    "SH2 binding enrichment": 0.577
  },
  {
    "SEQUENCE STRING": "MWGSDYVQLSR [MAP3K4_Y582]",
    "SH2 binding enrichment": 0.583
  },
  {
    "SEQUENCE STRING": "YAKSVYWENTL [NUP107_Y296]",
    "SH2 binding enrichment": 1.12
  },
  {
    "SEQUENCE STRING": "NPETCYQKLKK [TK2_Y190_R192K]",
    "SH2 binding enrichment": 0.783
  }
]

Would you kindly look at the next entry?
Enquiry: Entry TPIYPYLLPKS [PLD2_Y580_T577I] needs its SH2 binding enrichment filled in; supply it.
Return: 1.17
